Hey, just so you know, these numbers are from paper PMC10061536.

tested on: α-amylase; assay: α-Amylase inhibition assay; assay type: biochemical; settings: 5 μM
ASSAY READOUT: % age α-amylase inhibition
Dear colleague, please send the value followed by its unit.

Cc1ccc(C=NNc2nc(-c3ccc(F)cc3)cs2)c(Br)c1 : 51.54%
C[C@H]1O[C@H](O[C@H]2[C@H](O)[C@@H](O)[C@@H](O[C@H]3[C@H](O)[C@@H](O)C(O)O[C@@H]3CO)O[C@@H]2CO)[C@H](O)[C@@H](O)[C@@H]1N[C@H]1C=C(CO)[C@@H](O)[C@H](O)[C@H]1O (some centres unmarked) [acarbose, reference compound] : 66.81%
CCOc1ccccc1C=NNc1nc(-c2ccc(F)cc2)cs1 : 42.23%
CC(=NNc1nc(-c2ccc(F)cc2)cs1)c1cccc(Br)c1 : 51.68%

Proceed to the following item.
input: Fill in: % age α-amylase inhibition of Fc1ccc(-c2csc(NN=Cc3cccc(C(F)(F)F)c3)n2)cc1 is ___
output: 51.09%

###

Reported inhibition at 1000 ppm values for a set of compounds
target: Bovine serum albumin (BSA)-glucose model (Bos taurus); assay: In vitro anti-glycation assay, BSA-glucose model; type: biochemical; conditions: read-out: % age antiglycation inhibition
Sequence (P02769 25-607): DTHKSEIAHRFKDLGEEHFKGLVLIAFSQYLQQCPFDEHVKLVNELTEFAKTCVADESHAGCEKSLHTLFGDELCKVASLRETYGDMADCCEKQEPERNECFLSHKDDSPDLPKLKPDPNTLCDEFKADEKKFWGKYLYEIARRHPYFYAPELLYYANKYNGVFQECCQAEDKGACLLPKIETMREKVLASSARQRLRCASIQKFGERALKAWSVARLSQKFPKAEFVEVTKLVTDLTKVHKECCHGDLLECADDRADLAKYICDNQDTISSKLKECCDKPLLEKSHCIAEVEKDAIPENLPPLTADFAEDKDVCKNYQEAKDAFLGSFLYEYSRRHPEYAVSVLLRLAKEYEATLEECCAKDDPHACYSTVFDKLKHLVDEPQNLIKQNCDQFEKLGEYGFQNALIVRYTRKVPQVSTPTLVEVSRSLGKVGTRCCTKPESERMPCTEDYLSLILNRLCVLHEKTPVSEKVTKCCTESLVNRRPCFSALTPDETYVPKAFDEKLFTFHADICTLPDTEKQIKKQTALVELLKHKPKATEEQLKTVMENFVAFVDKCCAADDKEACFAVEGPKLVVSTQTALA
Record the value in %, omitting the unit from your answer.

Worked set:
CSc1ccccc1C=NNc1nc(-c2ccc(F)cc2)cs1 : 89.5
COc1c(F)cccc1C=NNc1nc(-c2ccc(F)cc2)cs1 : 87.1
Fc1ccc(-c2csc(NN=Cc3ccc[nH]3)n2)cc1 : 88.8

input: Fill in: inhibition at 1000 ppm of Cc1ccc(C=NNc2nc(-c3ccc(F)cc3)cs2)c(Br)c1 is ___
output: 87.5

input: Then CC(CCc1ccccc1)=NNc1nc(-c2ccc(F)cc2)cs1 ?
output: 81.6
